biological target: Nuclear factor NF-kappa-B p105 subunit (Homo sapiens) (UniProt P19838); experiment: small molecules binding NF-kappa-B p105/p50 – biochemical, small molecule microarray, anti-His fluorescence, primary screen (AID 624139);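 note: probe protein is his-tagged human p50 processed subunit at 1 µg/ml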
Sequence (P19838 1-433 limits assumed): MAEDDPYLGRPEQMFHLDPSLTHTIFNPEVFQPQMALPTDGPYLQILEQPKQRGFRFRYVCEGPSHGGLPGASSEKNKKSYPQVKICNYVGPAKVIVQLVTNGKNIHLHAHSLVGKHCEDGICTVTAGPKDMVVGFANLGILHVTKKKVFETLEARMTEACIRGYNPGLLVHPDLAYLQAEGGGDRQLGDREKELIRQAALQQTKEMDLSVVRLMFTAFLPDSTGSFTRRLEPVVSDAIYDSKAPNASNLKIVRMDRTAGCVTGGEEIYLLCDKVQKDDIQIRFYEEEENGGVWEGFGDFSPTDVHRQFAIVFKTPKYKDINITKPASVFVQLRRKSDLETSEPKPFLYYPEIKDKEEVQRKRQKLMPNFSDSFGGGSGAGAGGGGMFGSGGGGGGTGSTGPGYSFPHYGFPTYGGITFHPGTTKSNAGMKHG
The whole screen tested about 17,000 compounds, of which about 220 (1.3%) were called active.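 Rule for the calls: active = spot fluorescence over background significantly raised, with a chance value under 7% in all four replicate spots of the compound; inactive = the rest.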 Only a selection was taken, and actives are over-represented in it overall.
Just give me one of these, please: active, inactive

Prompt: # outcome recorded in this test, key = "C[C@@H]1CCCCO[C@@H](CN(C)C(=O)Cc2ccccc2)[C@H](C)CN([C@@H](C)CO)C(=O)c2cc(NC(=O)Nc3ccc(F)cc3)ccc2O1"
Completion: active

Prompt: For "Cc1noc(C)c1S(=O)(=O)Nc1ccc2c(c1)C(=O)N([C@@H](C)CO)C[C@H](C)[C@@H](CN(C)C)OCCCC[C@@H](C)O2" then?
Completion: inactive

Prompt: For "Cc1noc(C)c1NC(=O)Nc1ccc2c(c1)CC(=O)N([C@H](C)CO)C[C@H](C)[C@H](CN(C)C(=O)NC(C)C)O2" then?
Completion: inactive

Prompt: For "C[C@@H]1CN([C@H](C)CO)C(=O)c2cccc(NC(=O)Nc3ccccc3)c2O[C@@H]1CN(C)C(=O)NC1CCCCC1" then?
Completion: inactive

Prompt: For "C[C@@H]1CN([C@H](C)CO)C(=O)Cc2cc(NC(=O)C3CC3)ccc2O[C@H]1CN(C)Cc1ccc2c(c1)OCO2" then?
Completion: inactive

Prompt: For "C[C@H](CO)N1C[C@H](C)[C@@H](CN(C)S(=O)(=O)c2cn(C)cn2)Oc2ccc(NS(=O)(=O)c3cn(C)cn3)cc2C1=O" then?
Completion: inactive

Prompt: For "C[C@@H]1CCCCO[C@@H](CN(C)C(=O)Nc2ccccc2)[C@@H](C)CN([C@H](C)CO)C(=O)c2cc(NC(=O)Nc3ccc(F)cc3)ccc2O1" then?
Completion: inactive

Prompt: For "Cc1noc(C)c1S(=O)(=O)Nc1ccc2c(c1)C(=O)N([C@H](C)CO)C[C@@H](C)[C@H](CN(C)C(=O)NC(C)C)OCCCC[C@@H](C)O2" then?
Completion: inactive

Prompt: For "C[C@H](CO)N1C[C@H](C)[C@@H](CN(C)C(=O)NC2CCCCC2)Oc2c(NC(=O)Nc3ccc(F)cc3)cccc2C1=O" then?
Completion: inactive

Prompt: For "Cc1noc(C)c1S(=O)(=O)Nc1ccc2c(c1)C(=O)N([C@H](C)CO)C[C@H](C)[C@@H](CN(C)C(=O)CCC(F)(F)F)OCCCC[C@H](C)O2" then?
Completion: inactive

Prompt: For "Cc1noc(C)c1S(=O)(=O)Nc1ccc2c(c1)C(=O)N([C@H](C)CO)C[C@H](C)[C@H](CN(C)C(=O)CCC(F)(F)F)OCCCC[C@H](C)O2" then?
Completion: active

Prompt: For "C[C@H]1CN([C@@H](C)CO)C(=O)c2cccc(NC(=O)Nc3ccc(C(F)(F)F)cc3)c2O[C@H]1CN(C)C(=O)NC1CCCCC1" then?
Completion: active

Prompt: For "CC(C)NC(=O)Nc1ccc2c(c1)C(=O)N([C@@H](C)CO)C[C@@H](C)[C@H](CN(C)C(=O)Cc1ccccc1)OCCCC[C@H](C)O2" then?
Completion: inactive

Prompt: For "C[C@@H]1CCCCO[C@@H](CN(C)C(=O)Nc2ccccc2)[C@@H](C)CN([C@@H](C)CO)C(=O)c2cc(N(C)C)ccc2O1" then?
Completion: inactive

Prompt: For "C[C@@H]1CN([C@H](C)CO)C(=O)CCCn2nncc2CO[C@@H]1CN(C)C" then?
Completion: inactive

Prompt: For "COCCOC(=O)N1C(=O)[C@@]2(c3cc(C#CCC(C(=O)OC)C(=O)OC)ccc31)[C@H](c1ccc(OCCO)cc1)N1[C@H](c3ccccc3)[C@H](c3ccccc3)OC(=O)[C@H]1[C@@H]2C(=O)NC[C@H](O)c1ccccc1" then?
Completion: inactive

Prompt: For "CC(=O)OC[C@H]1O[C@@H](Oc2c(-c3ccc(O)c(O)c3)oc3cc(O)cc(O)c3c2=O)[C@H](O)[C@@H](O)[C@@H]1O" then?
Completion: inactive

Prompt: For "O=C(Nc1cccc(OCC(=O)N2CCOCC2)c1)C1CCCCC1" then?
Completion: inactive

Prompt: For "C[C@H](CO)N1C[C@H](C)[C@@H](CN(C)C(=O)Nc2ccccc2)Oc2ccc(NC(=O)C3CC3)cc2CC1=O" then?
Completion: inactive

Prompt: For "C[C@@H]1CN([C@H](C)CO)C(=O)Cc2cc(NC(=O)C3CC3)ccc2O[C@H]1CN(C)Cc1ccc(Cl)c(Cl)c1" then?
Completion: active

Prompt: For "C[C@@H]1CN([C@@H](C)CO)C(=O)c2cc(NS(=O)(=O)c3ccccc3)ccc2O[C@@H](C)CCCCO[C@H]1CN(C)C(=O)C1CCCCC1" then?
Completion: inactive

Prompt: For "Cc1cc(C)cc(Oc2c(C(F)(F)F)oc3cc(OCC(=O)O)ccc3c2=O)c1" then?
Completion: active

Prompt: For "C[C@H](CO)N1C[C@H](C)[C@H](CN(C)C(=O)CCC(F)(F)F)OCCCC[C@H](C)Oc2ccc(NS(C)(=O)=O)cc2C1=O" then?
Completion: inactive

Prompt: For "C[C@@H]1CCCCO[C@H](CN(C)C(=O)CCCN(C)C)[C@@H](C)CN([C@@H](C)CO)C(=O)c2cc(NC(=O)c3ccncc3)ccc2O1" then?
Completion: inactive

Prompt: For "C[C@@H]1CN([C@H](C)CO)C(=O)c2cccc(NS(C)(=O)=O)c2O[C@@H]1CN(C)S(=O)(=O)c1cccs1" then?
Completion: inactive

Prompt: For "CCCN(C)C[C@@H]1Oc2ncc(C#Cc3ccccc3)cc2C(=O)N([C@H](C)CO)C[C@@H]1C" then?
Completion: inactive

Prompt: For "C[C@@H]1CN([C@@H](C)CO)C(=O)Cc2cc(NC(=O)Cc3ccccc3)ccc2O[C@@H]1CN(C)C(=O)Nc1ccc2c(c1)OCO2" then?
Completion: inactive

Prompt: For "C[C@H]1CN([C@@H](C)CO)C(=O)CCCn2nncc2CO[C@@H]1CN(C)Cc1ccc(Oc2ccccc2)cc1" then?
Completion: inactive
